Tested on: GSK3A;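 further: KINOMEscan kinase panel screen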
reported.conditions: concentration: 1 μM,replicates: in singlicate; n = 1
reported.metric: %Inh (%)
Kindly answer with a numeric value in %, unit omitted.

Use the examples below as a reference point.
[[record]]
compound = "Cc1ccc(-n2nc(C(C)(C)C)cc2NC(=O)Nc2ccc(OCCN3CCOCC3)c3ccccc23)cc1"
system_name = "GSK3A"
measurement_units = "%"
observed_result = 29

[[record]]
compound = "C[C@@H](Oc1cc(-c2cnn(C3CCNCC3)c2)cnc1N)c1c(Cl)ccc(F)c1Cl"
system_name = "GSK3A"
measurement_units = "%"
observed_result = 68

[[record]]
compound = "Cl.Cl.NC[C@H](CC1CCCCC1)NC(=O)c1cc(Br)c(-c2ccnc3[nH]ccc23)s1"
system_name = "GSK3A"
measurement_units = "%"
observed_result = 0

[[record]]
compound = "Nc1nc(Nc2ccccc2)cc(-c2ccc3c(N)n[nH]c3c2)n1"
system_name = "GSK3A"
measurement_units = "%"
observed_result = 0

[[record]]
compound = "COc1ccc(C[C@@H](CN)NC(=O)c2cc(Br)c(-c3ccnc4[nH]ccc34)s2)cc1.Cl.Cl"
system_name = "GSK3A"
measurement_units = "%"
observed_result = 0

[[record]]
compound = "Cc1cc2cn[nH]c2cc1-c1cccc2c(N)c(C(N)=O)nnc12"
system_name = "GSK3A"
measurement_units = "%"
observed_result = 0


# context switch: different compound, same %Inh
%Inh reported for this compound CN(C)CC(O)COc1ccc(Nc2nccc(-c3cnn4nc(N5CCOCC5)ccc34)n2)cc1 (centres unmarked) : 4
